Origin of measurements: PubChem BioAssay

For each record, write down the corresponding z-score.
Test: E. coli acrAB mutant growth effects, primary screen, E. coli filamentation inducers, strain DRC39, OD650, 48 h (AID 1179);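 further: screen aims at cell division blockers that make cells filament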
Settings: E. coli DRC39 delta-acrAB growth, higher = more signal, called active from +8 up or from −8 down
Number only, no unit.

Consider the compound shown here: CC(=O)Nc1ccc([C@@H]2N[C@H](C(=O)O)CC[C@H]2C)cc1 What is its recorded z-score?
0.781

GET /values?readout=z-score&item= CSCC[C@@H]1NC(=O)CC=C[C@@H](C)COC(=O)[C@@H](C)COC1=O
-0.962

Given the compound CCOC(=O)[C@H](CC(C)C)NC(=O)CCC1CC(OC(=O)NCCc2ccc(F)cc2)CC2(CCCC(COC(=O)NCCOc3ccccc3)O2)O1 (stereo partly drawn) , what is its reported z-score?
0.168

Request the reported z-score associated with CCOC(=O)NN=C1C[C@@H](O)[C@@H](O)[C@@H]2[C@@H]3C(=O)N(Cc4ccc5c(c4)OCO5)C(=O)[C@@H]3CC[C@H]12
0.19

Item CC[C@@H](c1ccccc1)n1c(=O)n2n(c1=O)[C@H]1[C@H](O)[C@@H]3O[C@@H]3C(=O)[C@H]1CC2 has what recorded z-score?
0.216

// lookup z-score for CCCCC#C[C@@H]1C=C[C@H](OC(C)=O)[C@@H](COC(C)=O)O1
-0.248

Look up z-score: COC(=O)[C@H]1O[C@@H](c2c(OC)c(OC)c(C)c(OC)c2OC)[C@H](C)[C@@H](O)[C@H]1C
0.926

Which z-score value is on record for CC(C)=NOC[C@@H](C)[C@H](OCc1ccccc1)C(C)C ?
-0.339
